Source listed as patent US9321787B2.

- EXPERIMENTAL_TARGET: human Edg-1 receptor (Homo sapiens)
- Construct: FLAG (N); expressed in transfected cells; membrane preparation
- Sequence (P21453 whole entry): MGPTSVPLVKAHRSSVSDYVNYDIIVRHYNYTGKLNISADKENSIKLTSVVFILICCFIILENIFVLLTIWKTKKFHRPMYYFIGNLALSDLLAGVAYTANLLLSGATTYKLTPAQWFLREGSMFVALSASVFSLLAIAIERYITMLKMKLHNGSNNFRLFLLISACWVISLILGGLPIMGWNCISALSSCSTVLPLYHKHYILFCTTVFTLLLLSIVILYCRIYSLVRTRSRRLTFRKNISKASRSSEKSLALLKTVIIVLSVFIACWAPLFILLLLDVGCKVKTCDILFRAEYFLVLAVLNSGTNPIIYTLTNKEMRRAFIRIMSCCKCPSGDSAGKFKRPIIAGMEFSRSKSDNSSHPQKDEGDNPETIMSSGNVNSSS
- ASSAY_PROTOCOL: GTP-γ-S assay using human Edg-1 receptors (scintillation proximity assay, CHO Flp-In membrane preparation)
- Assay type: biochemical
- STATED_CONDITIONS: test compound at 10 μM; high control 10 μM S1P = 100% activation; membranes of CHO Flp-In cells overexpressing human Edg-1; read-out: % activation (Edg-1 receptor activation in percent of the activation by 10 μM S1P)
Catalogue of molecules with associated activation at 10 µM
READOUT_NAME: activation at 10 µM (%)

smiles_repr=Cc1cc(-c2nc3c(CC(C)C)nc(Cc4ccccc4)nc3o2)cc(C)c1OCC(=O)O result_number=98
smiles_repr=Cc1cc(-c2nc3c(C(C)C)nc(Cc4ccc(Cl)cc4)nc3o2)cc(C)c1OCC(=O)O result_number=90
smiles_repr=Cc1cc(-c2nc3c(CC(C)C)nc(Oc4cccc(Cl)c4)nc3o2)cc(C)c1OCC(=O)O result_number=86
smiles_repr=Cc1cc(-c2nc3c(CC(C)C)nc(Cc4ccc(Cl)cc4)nc3o2)cc(C)c1OCC(=O)O result_number=38
smiles_repr=CCCc1nc(OCCC(F)(F)F)nc2oc(-c3cc(C)c(OCC(=O)O)c(C)c3)nc12 result_number=97
smiles_repr=CCCc1nc(Oc2cccc(Cl)c2)nc2oc(-c3cc(C)c(OCC(=O)O)c(C)c3)nc12 result_number=118
smiles_repr=CCCc1nc(Oc2cc(F)ccc2F)nc2oc(-c3cc(C)c(OCC(=O)O)c(C)c3)nc12 result_number=94
smiles_repr=Cc1cc(-c2nc3c(CC(C)C)nc(Oc4ccccc4F)nc3o2)cc(C)c1OCC(=O)O result_number=92
smiles_repr=Cc1cc(-c2nc3c(CC(C)C)nc(OCCC(F)(F)F)nc3o2)cc(C)c1OCC(=O)O result_number=106
